# System: KRas G12D-mediated phosphorylation of ERK
# Experiment notes: Inhibition of KRas G12D-mediated phosphorylation of ERK in AGS cells
# Type: cell-based
# Conditions: Homo sapiens; AGS cells expressing G12D, 3 hours, phospho-ERK normalized to GAPDH
The following compounds are listed with their measured IC50 values.

{"columns": ["Compound", "Test system", "Inequality symbol", "IC50 (µM)"],
 "data": [
  ["CO[C@H]1CN[C@H](COc2nc(N3C[C@H]4CC[C@@H](C3)N4)c3cnc(-c4cccc5cccc(Cl)c45)c(F)c3n2)C1", "KRas G12D-mediated phosphorylation of ERK", ">", 16.7],
  ["CC1CCc2cccc(-c3ncc4c(N5CC6CCC(C5)N6)nc(OC[C@@H]5CCCN5C)nc4c3F)c21 (stereo partly shown)", "KRas G12D-mediated phosphorylation of ERK", "=", 12.8],
  ["CN1C[C@H](F)C[C@H]1COc1nc(N2C[C@H]3CC[C@@H](C2)N3)c2cnc(-c3cccc4cccc(Cl)c34)c(F)c2n1", "KRas G12D-mediated phosphorylation of ERK", "=", 9.51],
  ["C#Cc1cccc2cncc(-c3ncc4c(N5C[C@H]6CC[C@@H](C5)N6)nc(OC[C@]56CCCN5C[C@@H](F)C6)nc4c3F)c12", "KRas G12D-mediated phosphorylation of ERK", "=", 0.307],
  ["C#Cc1c(F)ccc2cc(O)cc(-c3ncc4c(N5CC6CCC(C5)N6)nc(OC[C@]56CCCN5[C@@H](COC(=O)N(C)C)CC6)nc4c3F)c12", "KRas G12D-mediated phosphorylation of ERK", "=", 0.0084],
  ["Oc1cc(-c2ncc3c(N4C[C@H]5CC[C@@H](C4)N5)nc(OC[C@@H]4CCCN4)nc3c2F)c2ccccc2c1", "KRas G12D-mediated phosphorylation of ERK", "=", 15.4],
  ["Oc1cc(-c2ncc3c(N4C[C@H]5CC[C@@H](C4)N5)ncnc3c2F)c2ccccc2c1", "KRas G12D-mediated phosphorylation of ERK", "=", 12.8]
]}

FYI, the data here is from patent US11453683B1.
